The measured values listed here are drawn from ChEMBL document CHEMBL4229379.

System: Pseudomonas aeruginosa
measurement-notes: Antibacterial activity against Pseudomonas aeruginosa ATCC 27853 after 18 hrs by CLSI broth microdilution method
Type: functional
assay-context: ATCC 27853, 18 h

{"columns": ["molecule", "units-label", "relation", "MIC"],
 "data": [
  ["CN(C)C(=N)c1ccc2cc(-c3cccc(-c4cc5ccc(C(=N)N(C)C)cc5[nH]4)c3)[nH]c2c1", "µg/mL", ">", 128],
  ["CCC(CC)NC(=N)c1ccc2cc(-c3ccc(-c4cc5ccc(C(=N)NC(CC)CC)cc5[nH]4)cc3)[nH]c2c1", "µg/mL", "=", 16],
  ["CN(C)C(=N)c1ccc2cc(-c3ccc4cc(-c5cc6ccc(C(=N)N(C)C)cc6[nH]5)ccc4c3)[nH]c2c1", "µg/mL", ">", 128],
  ["CCC(C)NC(=N)c1ccc2cc(-c3ccc(-c4cc5ccc(C(=N)NC(C)CC)cc5[nH]4)cc3)[nH]c2c1 (configuration not stated)", "µg/mL", "=", 4],
  ["COCCNC(=N)c1ccc2cc(-c3cncc(-c4cc5ccc(C(=N)NCCOC)cc5[nH]4)c3)[nH]c2c1", "µg/mL", ">", 64],
  ["CN1CCN(C(=N)c2ccc3cc(-c4ccc(-c5cc6ccc(C(=N)N7CCN(C)CC7)cc6[nH]5)cc4)[nH]c3c2)CC1", "µg/mL", "=", 64],
  ["N=C(c1ccc2cc(-c3ccc(-c4cc5ccc(C(=N)N6CCC6)cc5[nH]4)cc3)[nH]c2c1)N1CCC1", "µg/mL", "=", 64],
  ["N=C(c1ccc2cc(-c3ccc(-c4cc5ccc(C(=N)N6CC=CCC6)cc5[nH]4)cc3)[nH]c2c1)N1CC=CCC1", "µg/mL", ">", 128],
  ["N=C(c1ccc2cc(-c3ccc(-c4cc5ccc(C(=N)N6CCC(N7CCCC7)CC6)cc5[nH]4)cc3)[nH]c2c1)N1CCC(N2CCCC2)CC1", "µg/mL", "=", 16],
  ["COCCNC(=N)c1ccc2cc(-c3ccc(-c4cc5ccc(C(=N)NCCOC)cc5[nH]4)cc3)[nH]c2c1", "µg/mL", "=", 16],
  ["CN1CCC2(CC1)CCN(C(=N)c1ccc3cc(-c4ccc(-c5cc6ccc(C(=N)N7CCC8(CCN(C)CC8)C7)cc6[nH]5)cc4)[nH]c3c1)C2", "µg/mL", "=", 32],
  ["CN(C)C(=N)c1ccc2cc(-c3ccc(-c4cc5ccc(C(=N)N(C)C)cc5[nH]4)nc3)[nH]c2c1", "µg/mL", "=", 64]
]}

---

Test system: Escherichia coli
measurement-notes: Antibacterial activity against extended-spectrum beta-lactamase deficient Escherichia coli ATCC 25922 after 18 hrs by CLSI broth microdilution method
Format: functional
assay-context: ATCC 25922, 18 h
MIC overview

{"columns": ["compound", "MIC"],
 "data": [
  ["N=C(c1ccc2cc(-c3ccc(-c4cc5ccc(C(=N)N6CCCC6)cc5[nH]4)cc3)[nH]c2c1)N1CCCC1", "4 µg/mL"],
  ["CN(C)CCNC(=N)c1ccc2cc(-c3ccc(-c4cc5ccc(C(=N)NCCN(C)C)cc5[nH]4)cc3)[nH]c2c1", "8 µg/mL"],
  ["N=C(c1ccc2cc(-c3ccc(-c4cc5ccc(C(=N)N6CCOCC6)cc5[nH]4)cc3)[nH]c2c1)N1CCOCC1", "4 µg/mL"],
  ["CCC(C)NC(=N)c1ccc2cc(-c3ccc(-c4cc5ccc(C(=N)NC(C)CC)cc5[nH]4)cc3)[nH]c2c1 (centres undefined)", "4 µg/mL"]
]}

---

Test system: Klebsiella aerogenes
measurement-notes: Antibacterial activity against Enterobacter aerogenes ATCC 13048 after 18 hrs by CLSI broth microdilution method
Format: functional
assay-context: ATCC 13048, 18 h
MIC overview
measured-attribute: MIC (µg/mL)

{"columns": ["compound", "measured-attribute", "relation", "result"],
 "data": [
  ["CN(C)C(=N)c1ccc2cc(-c3ccc(-c4cc5ccc(C(=N)N(C)C)cc5[nH]4)cc3)[nH]c2c1", "MIC", "=", 2],
  ["CCC(C)NC(=N)c1ccc2cc(-c3ccc(-c4cc5ccc(C(=N)NC(C)CC)cc5[nH]4)cc3)[nH]c2c1 (stereo not given)", "MIC", "=", 4],
  ["CN(C)CCCNC(=N)c1ccc2cc(-c3ccc(-c4cc5ccc(C(=N)NCCCN(C)C)cc5[nH]4)cc3)[nH]c2c1", "MIC", "=", 8],
  ["CNC(=N)c1ccc2cc(-c3ccc(-c4cc5ccc(C(=N)NC)cc5[nH]4)cc3)[nH]c2c1", "MIC", "=", 16],
  ["CNC(=N)c1ccc2cc(-c3cncc(-c4cc5ccc(C(=N)NC)cc5[nH]4)c3)[nH]c2c1", "MIC", ">", 64],
  ["CCC(C)NC(=N)c1ccc2cc(-c3cncc(-c4cc5ccc(C(=N)NC(C)CC)cc5[nH]4)c3)[nH]c2c1 (stereo not given)", "MIC", ">", 64],
  ["N=C(c1ccc2cc(-c3ccc(-c4cc5ccc(C(=N)N6CCC(N7CCCC7)CC6)cc5[nH]4)cc3)[nH]c2c1)N1CCC(N2CCCC2)CC1", "MIC", "=", 16],
  ["CN(C)C(=N)c1ccc2cc(-c3ccc(Oc4ccc(-c5cc6ccc(C(=N)N(C)C)cc6[nH]5)cc4)cc3)[nH]c2c1", "MIC", "=", 8],
  ["N=C(c1ccc2cc(-c3ccc(-c4cc5ccc(C(=N)N6CCOCC6)cc5[nH]4)cc3)[nH]c2c1)N1CCOCC1", "MIC", "=", 8],
  ["CN1CCN(C(=N)c2ccc3cc(-c4ccc(-c5cc6ccc(C(=N)N7CCN(C)CC7)cc6[nH]5)cc4)[nH]c3c2)CC1", "MIC", "=", 16],
  ["CN(C)CCNC(=N)c1ccc2cc(-c3ccc(-c4cc5ccc(C(=N)NCCN(C)C)cc5[nH]4)cc3)[nH]c2c1", "MIC", "=", 8],
  ["CN(C)C(=N)c1ccc2cc(-c3cncc(-c4cc5ccc(C(=N)N(C)C)cc5[nH]4)c3)[nH]c2c1", "MIC", "=", 4],
  ["CCC(CC)NC(=N)c1ccc2cc(-c3ccc(-c4cc5ccc(C(=N)NC(CC)CC)cc5[nH]4)cc3)[nH]c2c1", "MIC", "=", 8],
  ["CN(C)C(=N)c1ccc2cc(-c3ccc(-c4cc5ccc(C(=N)N(C)C)cc5[nH]4)nc3)[nH]c2c1", "MIC", "=", 16],
  ["C[C@H]1COc2c(N3CCN(C)CC3)c(F)cc3c(=O)c(C(=O)O)cn1c23.C[C@H]1COc2c(N3CCN(C)CC3)c(F)cc3c(=O)c(C(=O)O)cn1c23.O", "MIC", "≤", 0.03]
]}

---

System: Klebsiella pneumoniae
measurement-notes: Antibacterial activity against new delhi metallo-beta-lactamase-1 harboring Klebsiella pneumoniae ATCC BAA-2146 after 18 hrs by CLSI broth microdilution method
Format: functional
assay-context: ATCC BAA-2146, 18 h

{"columns": ["compound", "units-label", "relation", "MIC"],
 "data": [
  ["N=C(c1ccc2cc(-c3ccc(-c4cc5ccc(C(=N)N6CCC(N7CCCC7)CC6)cc5[nH]4)cc3)[nH]c2c1)N1CCC(N2CCCC2)CC1", "µg/mL", "=", 32],
  ["c1cc2cc(-c3ccc(-c4cc5ccc(C6=NCCCN6)cc5[nH]4)cc3)[nH]c2cc1C1=NCCCN1", "µg/mL", "=", 16],
  ["CN(C)CCCNC(=N)c1ccc2cc(-c3ccc(-c4cc5ccc(C(=N)NCCCN(C)C)cc5[nH]4)cc3)[nH]c2c1", "µg/mL", "=", 8],
  ["CNC(=N)c1ccc2cc(-c3ccc(-c4cc5ccc(C(=N)NC)cc5[nH]4)cc3)[nH]c2c1", "µg/mL", "=", 64],
  ["CCC(CC)NC(=N)c1ccc2cc(-c3ccc(-c4cc5ccc(C(=N)NC(CC)CC)cc5[nH]4)cc3)[nH]c2c1", "µg/mL", "=", 8],
  ["CN1CCN(C(=N)c2ccc3cc(-c4ccc(-c5cc6ccc(C(=N)N7CCN(C)CC7)cc6[nH]5)cc4)[nH]c3c2)CC1", "µg/mL", "=", 16],
  ["CC(C)NC(=N)c1ccc2cc(-c3ccc(-c4cc5ccc(C(=N)NC(C)C)cc5[nH]4)cc3)[nH]c2c1", "µg/mL", "=", 4],
  ["N=C(c1ccc2cc(-c3ccc(-c4cc5ccc(C(=N)N6CCCC6)cc5[nH]4)cc3)[nH]c2c1)N1CCCC1", "µg/mL", "=", 8],
  ["C[C@H]1COc2c(N3CCN(C)CC3)c(F)cc3c(=O)c(C(=O)O)cn1c23.C[C@H]1COc2c(N3CCN(C)CC3)c(F)cc3c(=O)c(C(=O)O)cn1c23.O", "µg/mL", ">", 128],
  ["CN(C)C(=N)c1ccc2cc(-c3cccc(-c4cc5ccc(C(=N)N(C)C)cc5[nH]4)c3)[nH]c2c1", "µg/mL", ">", 128],
  ["CN(C)C(=N)c1ccc2cc(-c3ccc4cc(-c5cc6ccc(C(=N)N(C)C)cc6[nH]5)ccc4c3)[nH]c2c1", "µg/mL", ">", 128],
  ["CN(C)C(=N)c1ccc2cc(-c3ccc(-c4cc5ccc(C(=N)N(C)C)cc5[nH]4)nc3)[nH]c2c1", "µg/mL", "=", 32],
  ["CCNC(=N)c1ccc2cc(-c3ccc(-c4cc5ccc(C(=N)NCC)cc5[nH]4)cc3)[nH]c2c1", "µg/mL", "=", 32],
  ["CNC(=N)c1ccc2cc(-c3cncc(-c4cc5ccc(C(=N)NC)cc5[nH]4)c3)[nH]c2c1", "µg/mL", ">", 64],
  ["CN(C)C(=N)c1ccc2cc(-c3cncc(-c4cc5ccc(C(=N)N(C)C)cc5[nH]4)c3)[nH]c2c1", "µg/mL", "=", 4],
  ["CN1CCC2(CC1)CCN(C(=N)c1ccc3cc(-c4ccc(-c5cc6ccc(C(=N)N7CCC8(CCN(C)CC8)C7)cc6[nH]5)cc4)[nH]c3c1)C2", "µg/mL", "=", 16],
  ["CN(C)CCNC(=N)c1ccc2cc(-c3ccc(-c4cc5ccc(C(=N)NCCN(C)C)cc5[nH]4)cc3)[nH]c2c1", "µg/mL", "=", 8],
  ["N=C(c1ccc2cc(-c3ccc(-c4cc5ccc(C(=N)N6CCOCC6)cc5[nH]4)cc3)[nH]c2c1)N1CCOCC1", "µg/mL", "=", 8],
  ["CCC(C)NC(=N)c1ccc2cc(-c3ccc(-c4cc5ccc(C(=N)NC(C)CC)cc5[nH]4)cc3)[nH]c2c1 (stereo not drawn)", "µg/mL", "=", 4],
  ["N=C(c1ccc2cc(-c3ccc(-c4cc5ccc(C(=N)N6CC=CC6)cc5[nH]4)cc3)[nH]c2c1)N1CC=CC1", "µg/mL", "=", 8],
  ["N=C(c1ccc2cc(-c3ccc(-c4cc5ccc(C(=N)N6CC=CCC6)cc5[nH]4)cc3)[nH]c2c1)N1CC=CCC1", "µg/mL", "=", 8],
  ["CN(C)c1cc(NC(=O)CNC(C)(C)C)c(O)c2c1C[C@H]1C[C@H]3[C@H](N(C)C)C(O)=C(C(N)=O)C(=O)[C@@]3(O)C(O)=C1C2=O", "µg/mL", "=", 8],
  ["CN(C)C(=N)c1ccc2cc(-c3ccc(-c4cc5ccc(C(=N)N(C)C)cc5[nH]4)cc3)[nH]c2c1", "µg/mL", "=", 2],
  ["CC(C)NC(=N)c1ccc2cc(-c3cncc(-c4cc5ccc(C(=N)NC(C)C)cc5[nH]4)c3)[nH]c2c1", "µg/mL", ">", 64],
  ["CN(C)C(=N)c1ccc2cc(-c3ccc(Oc4ccc(-c5cc6ccc(C(=N)N(C)C)cc6[nH]5)cc4)cc3)[nH]c2c1", "µg/mL", "=", 8],
  ["CN(C)C(=N)c1ccc2cc(-c3cnc(-c4cc5ccc(C(=N)N(C)C)cc5[nH]4)cn3)[nH]c2c1", "µg/mL", "=", 16],
  ["CN(C)C(=N)c1ccc2cc(-c3cnc(-c4cc5ccc(C(=N)N(C)C)cc5[nH]4)s3)[nH]c2c1", "µg/mL", "=", 4],
  ["N=C(c1ccc2cc(-c3ccc(-c4cc5ccc(C(=N)N6CCC6)cc5[nH]4)cc3)[nH]c2c1)N1CCC1", "µg/mL", "=", 16],
  ["CCN(C)C(=N)c1ccc2cc(-c3ccc(-c4cc5ccc(C(=N)N(C)CC)cc5[nH]4)cc3)[nH]c2c1", "µg/mL", "=", 4],
  ["COCCNC(=N)c1ccc2cc(-c3ccc(-c4cc5ccc(C(=N)NCCOC)cc5[nH]4)cc3)[nH]c2c1", "µg/mL", "=", 8],
  ["COCCNC(=N)c1ccc2cc(-c3cncc(-c4cc5ccc(C(=N)NCCOC)cc5[nH]4)c3)[nH]c2c1", "µg/mL", ">", 64],
  ["CN(C)C(=N)c1ccc2cc(-c3ccc4ccc(-c5cc6ccc(C(=N)N(C)C)cc6[nH]5)cc4c3)[nH]c2c1", "µg/mL", ">", 128],
  ["CCC(C)NC(=N)c1ccc2cc(-c3cncc(-c4cc5ccc(C(=N)NC(C)CC)cc5[nH]4)c3)[nH]c2c1 (stereo not drawn)", "µg/mL", ">", 64]
]}
